# assay remarks: In vitro mucosal-to-serosal vancomycin transport, modified Ussing chambers, jejunum
# Type: in vitro ADME, rat
# stated conditions: male, rat, pH 7.4, 5 mg/ml; jejunum; HEPES buffer containing 5% w/w Gelucire ® 44/14 + 5% w/w Labrasol ®
Structures can show the parent of a compound that is named as a salt.
quantity: Papp at 5 mg/ml
Answer format: number, then unit.

(Q) Any idea what its Papp at 5 mg/ml is? The compound is CN[C@H](CC(C)C)C(=O)N[C@H]1C(=O)N[C@@H](CC(N)=O)C(=O)N[C@H]2C(=O)N[C@H]3C(=O)N[C@H](C(=O)N[C@H](C(=O)O)c4cc(O)cc(O)c4-c4cc3ccc4O)[C@H](O)c3ccc(c(Cl)c3)Oc3cc2cc(c3O[C@@H]2O[C@H](CO)[C@@H](O)[C@H](O)[C@H]2O[C@H]2C[C@](C)(N)[C@H](O)[C@H](C)O2)Oc2ccc(cc2Cl)[C@H]1O [Vancomycin hydrochloride]
(A) 7.1 nm/s
